Origin of measurements: patent US4748161A

- assay_remarks: Body weight of rats in method B
- Set-up: species or system male Wistar strain rats
- condition_set: rat, in vivo
metric: Body weight during feed period, 28th day (g)
# value in g; strip the unit string

Ask: Record request: Body weight during feed period, 28th day value, item C=C(CCC(C)C1CCC2(C)C3CCC4C(C)(C)C(OC(=O)C(C)=Cc5cc(N)ccc5OCCC)CCC45CC35CCC12C)C(C)C (stereo not shown)
Reply: 268

Ask: One more compound: COc1cc(C(=O)OC2CCC34CC35CCC3(C)C(C(C)CCC=C(C)C)CCC3(C)C5CCC4C2(C)C)ccc1N (stereo not shown)
Reply: 272

Ask: One more compound: CCOc1cc(C=C(C)C(=O)OC2CCC34CC35CCC3(C)C(C(C)CCC(C)=C(C)C)CCC3(C)C5CCC4C2(C)C)ccc1O (stereo not shown)
Reply: 273

Ask: One more compound: COc1cc(C=C(C)C(=O)OC2CCC34CC35CCC3(C)C(C(C)CCC=C(C)C)CCC3(C)C5CCC4C2(C)C)ccc1N (stereo not shown)
Reply: 268

Ask: One more compound: CCCOc1cc(C=C(C)C(=O)OC2CCC34CC35CCC3(C)C(C(C)CCC=C(C)C)CCC3(C)C5CCC4C2(C)C)ccc1O (stereo not shown)
Reply: 271

Ask: One more compound: CCOc1ccc(N)cc1C=CC(=O)OC1CCC23CC24CCC2(C)C(C(C)CCC=C(C)C)CCC2(C)C4CCC3C1(C)C (stereo not shown)
Reply: 268

Ask: One more compound: COc1cc(C=C(C)C(=O)OC2CCC34CC35CCC3(C)C(C(C)CCC=C(C)C)CCC3(C)C5CCC4C2(C)C)ccc1O (stereo not shown)
Reply: 277

Ask: One more compound: COc1cc(C=C(C)C(=O)OC2CCC34CC35CCC3(C)C(C(C)CCC(C)=C(C)C)CCC3(C)C5CCC4C2(C)C)ccc1O (stereo not shown)
Reply: 273

Ask: One more compound: C=C(CCC(C)C1CCC2(C)C3CCC4C(C)(C)C(OC(=O)C(C)=Cc5ccc(O)c(OC)c5)CCC45CC35CCC12C)C(C)C (stereo not shown)
Reply: 274

Ask: One more compound: CCC(=Cc1ccc(O)cc1)C(=O)OC1CCC23CC24CCC2(C)C(C(C)CCC=C(C)C)CCC2(C)C4CCC3C1(C)C (stereo not shown)
Reply: 271

Ask: One more compound: COc1ccc(N)cc1C(=O)OC1CCC23CC24CCC2(C)C(C(C)CCC(C)=C(C)C)CCC2(C)C4CCC3C1(C)C (stereo not shown)
Reply: 271

Ask: One more compound: C=C(CCC(C)C1CCC2(C)C3CCC4C(C)(C)C(OC(=O)C(C)=Cc5ccc(N)c(OC)c5)CCC45CC35CCC12C)C(C)C (stereo not shown)
Reply: 268

Ask: One more compound: CC(C)=CCCC(C)C1CCC2(C)C3CCC4C(C)(C)C(OC(=O)C(C)=Cc5ccc(N)cc5)CCC45CC35CCC12C (stereo not shown)
Reply: 267
